molecular target: M3 muscarinic receptor subtype (Homo sapiens)
Sequence (P20309 whole entry): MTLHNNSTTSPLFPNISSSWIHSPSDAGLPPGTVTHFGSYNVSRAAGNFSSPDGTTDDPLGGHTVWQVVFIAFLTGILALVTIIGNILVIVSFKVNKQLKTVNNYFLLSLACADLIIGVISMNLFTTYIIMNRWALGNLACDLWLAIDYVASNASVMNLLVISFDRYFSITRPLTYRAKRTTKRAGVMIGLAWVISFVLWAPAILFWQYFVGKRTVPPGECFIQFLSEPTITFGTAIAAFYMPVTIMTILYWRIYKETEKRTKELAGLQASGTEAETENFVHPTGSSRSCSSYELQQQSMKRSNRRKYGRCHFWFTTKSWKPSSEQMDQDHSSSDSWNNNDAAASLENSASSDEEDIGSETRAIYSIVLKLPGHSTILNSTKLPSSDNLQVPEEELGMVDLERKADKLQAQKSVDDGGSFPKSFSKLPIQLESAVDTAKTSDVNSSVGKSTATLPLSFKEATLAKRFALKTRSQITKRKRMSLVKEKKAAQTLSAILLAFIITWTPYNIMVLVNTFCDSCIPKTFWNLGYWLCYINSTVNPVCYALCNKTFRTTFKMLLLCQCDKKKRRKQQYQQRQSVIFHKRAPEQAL
Readout Name: Ki

Reported Ki ( CN(CCN1CCC(OC(=O)Nc2ccccc2-c2ccccc2)CC1)C(=O)c1ccc(CN2CCC(C(N)=O)CC2)cc1 [compound of formula I] ) = < 5 nM

###

details: DMS trace, 40-75% RH
Readout Name: weight gain in the humidity range of 40-75% RH (%)
Reply with just the number (in %).

Examples from the recorded data:
CN(CCN1CCC(OC(=O)Nc2ccccc2-c2ccccc2)CC1)C(=O)c1ccc(CN2CCC(C(N)=O)CC2)cc1 [Example 11] ... 1.3
CN(CCN1CCC(OC(=O)Nc2ccccc2-c2ccccc2)CC1)C(=O)c1ccc(CN2CCC(C(N)=O)CC2)cc1.O=S(=O)(O)O [Example 5] ... 1.8
CN(CCN1CCC(OC(=O)Nc2ccccc2-c2ccccc2)CC1)C(=O)c1ccc(CN2CCC(C(N)=O)CC2)cc1.O=C(O)C(=O)O.O=C(O)C(=O)O [Example 7] ... 1.1
CN(CCN1CCC(OC(=O)Nc2ccccc2-c2ccccc2)CC1)C(=O)c1ccc(CN2CCC(C(N)=O)CC2)cc1 [Example 10] ... 1.2

Moving on to another molecule below.
Reported weight gain in the humidity range of 40-75% RH ( CN(CCN1CCC(OC(=O)Nc2ccccc2-c2ccccc2)CC1)C(=O)c1ccc(CN2CCC(C(N)=O)CC2)cc1.O=P(O)(O)O.O=P(O)(O)O [Example 3] ) = 0.6

###

Catalogue of weight gain when exposed to 2-90% RH values
conditions: DMS trace, 2-90% RH
Reply with just the number (in %).

CN(CCN1CCC(OC(=O)Nc2ccccc2-c2ccccc2)CC1)C(=O)c1ccc(CN2CCC(C(N)=O)CC2)cc1 [Example 11] ... 9
CN(CCN1CCC(OC(=O)Nc2ccccc2-c2ccccc2)CC1)C(=O)c1ccc(CN2CCC(C(N)=O)CC2)cc1.O=S(=O)(O)O ... 10
CN(CCN1CCC(OC(=O)Nc2ccccc2-c2ccccc2)CC1)C(=O)c1ccc(CN2CCC(C(N)=O)CC2)cc1.O=C(O)C(=O)O.O=C(O)C(=O)O ... 5.3
CN(CCN1CCC(OC(=O)Nc2ccccc2-c2ccccc2)CC1)C(=O)c1ccc(CN2CCC(C(N)=O)CC2)cc1.O=P(O)(O)O.O=P(O)(O)O ... 3.3

Moving on to another compound below.
Reported weight gain when exposed to 2-90% RH ( CN(CCN1CCC(OC(=O)Nc2ccccc2-c2ccccc2)CC1)C(=O)c1ccc(CN2CCC(C(N)=O)CC2)cc1 [Example 10] ) = 10

###

target: UniProt:P20309; test: Blockade of agonist-mediated calcium release via FLIPR; settings: CHO cells stably expressing the hM3 receptor; this or a similar assay
Readout Name: Ki

Reported Ki ( CN(CCN1CCC(OC(=O)Nc2ccccc2-c2ccccc2)CC1)C(=O)c1ccc(CN2CCC(C(N)=O)CC2)cc1 [compound of formula I] ) = < 5 nM

Taken from patent US11390603B2.
